Hey, just so you know, these numbers are from ChEMBL document CHEMBL5665443.

Record form. Attribute: inhibition. Fill in for each entry.
- TARGET OR TEST SYSTEM: N-glycosylase/DNA lyase (Homo sapiens);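 note: OGG1 cleavage of a quenched duplex DNA oligonucleotide, coupled to APE1 for strand incision, read as fluorescence at 594 nm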
- STATED CONDITIONS: Compound Concentration 10.0 uM, Hit Yes
- Description: Inhibition of OGG1 by quantifying inhibition of OGG1-mediated cleavage and dissociation of quenched duplex DNA oligonucleotides, measured as fluorescence at 594 nm. To generate a functional strand incision and increase turn-over this assay is coupled to APE1.
Hi! Could you send only the number? It should be in %, unit omitted.

Using the record for CC(C)(O)c1ccccc1CC[C@@H](SCC1(CC(=O)O)CC1)c1cccc(/C=C/c2ccc3ccc(Cl)cc3n2)c1 , report its inhibition.
61.2

// next record COc1cc(C(=O)NS(=O)(=O)c2ccccc2C)ccc1Cc1cn(C)c2ccc(NC(=O)OC3CCCC3)cc12
45.1

// next record CC(C)(C[C@H]1CN(S(=O)(=O)c2cccc(C(F)(F)F)c2)c2cc(-c3cc(F)cc(OC(F)F)c3)ccc2O1)C(=O)O
101

// next record CC(COc1ccccc1)N(CCCl)Cc1ccccc1 (stereo not given)
41.7

// next record O=c1cc(-c2cc(F)c(Cl)nc2Cl)[nH]c2c(-c3ccccc3)c(C(F)(F)F)nn12
60.4

----------
- TARGET OR TEST SYSTEM: Endonuclease 8-like 1 (Homo sapiens) (UniProt Q96FI4);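 note: fluorescence at 594 nm from quenched duplex DNA oligonucleotides released by NEIL1 cleavage and strand separation, reported as reduction of this enzyme activity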
- Sequence (Q96FI4 whole entry): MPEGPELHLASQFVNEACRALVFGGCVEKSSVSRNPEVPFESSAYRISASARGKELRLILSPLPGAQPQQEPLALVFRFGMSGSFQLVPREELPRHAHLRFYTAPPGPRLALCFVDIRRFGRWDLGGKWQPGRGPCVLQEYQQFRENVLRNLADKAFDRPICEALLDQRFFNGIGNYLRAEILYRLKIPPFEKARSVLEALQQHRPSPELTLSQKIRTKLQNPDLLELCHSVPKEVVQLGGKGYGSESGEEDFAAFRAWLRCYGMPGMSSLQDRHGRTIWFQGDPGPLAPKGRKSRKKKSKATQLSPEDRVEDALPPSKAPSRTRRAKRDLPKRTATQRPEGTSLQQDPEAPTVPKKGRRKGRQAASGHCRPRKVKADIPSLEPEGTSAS
- STATED CONDITIONS: Compound Concentration 10.0 uM, Hit No
- Description: Inhibition of NEIL1 by quantifying inhibition of NEIL1-mediated cleavage and dissociation of quenched duplex DNA oligonucleotides, measured as fluorescence at 594 nm.
ASSAY METRIC: inhibition (%)
Hi! Could you send only the number? It should be in %, unit omitted.

Using the record for CC(COc1ccccc1)N(CCCl)Cc1ccccc1 (stereo not given) , report its inhibition.
-3.32

// next record Cc1ccc(Cn2nc(C(=O)N[C@@H]3C(C)(C)[C@@H]4CC[C@@]3(C)C4)cc2-c2ccc(Cl)c(C)c2)cc1
10.9

// next record COc1ccc(NS(=O)(=O)c2sc3ccc(Cl)cc3c2C)cc1N1CCNCC1
16

// next record CC(C)Oc1ccc(-c2nc(-c3cccc4c3CC[C@@H]4NCCO)no2)cc1C#N
-0.352

// next record CN(C(=O)/C=C/c1ccoc1)[C@@H]1CC[C@@]2(O)[C@H]3Cc4ccc(O)c5c4[C@@]2(CCN3CC2CC2)[C@H]1O5
14.2

----------
Record form. Attribute: inhibition. Fill in for each entry.
- TARGET OR TEST SYSTEM: Uracil-DNA glycosylase (Homo sapiens) (UniProt P13051);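 note: UNG excision on a quenched double-stranded DNA oligo probe, with APE1 added for strand incision and turnover, read as fluorescence at 594 nm as strands separate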
- Sequence (P13051 whole entry): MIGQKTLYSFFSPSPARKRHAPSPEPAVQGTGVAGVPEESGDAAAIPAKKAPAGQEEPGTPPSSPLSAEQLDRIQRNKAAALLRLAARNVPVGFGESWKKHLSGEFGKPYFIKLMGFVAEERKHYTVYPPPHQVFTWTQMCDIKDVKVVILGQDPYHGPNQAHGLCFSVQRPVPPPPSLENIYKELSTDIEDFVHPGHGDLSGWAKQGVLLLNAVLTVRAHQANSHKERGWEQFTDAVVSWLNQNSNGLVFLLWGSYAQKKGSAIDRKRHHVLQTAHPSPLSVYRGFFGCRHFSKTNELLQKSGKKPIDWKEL
- STATED CONDITIONS: Compound Concentration 10.0 uM, Hit No
- Description: Inhibition of UNG by quantifying inhibition of UNG-mediated cleavage and dissociation of quenched duplex DNA oligonucleotides, measured as fluorescence at 594 nm. To generate a functional strand incision and increase turn-over this assay is coupled to APE1.
Hi! Could you send only the number? It should be in %, unit omitted.

Using the record for CN1C[C@@H](NS(=O)(=O)N(C)C)C[C@@H]2c3cccc4c3c(cn4C)C[C@H]21 , report its inhibition.
-6.05

// next record CCCn1c(=O)c2nc(C34CC5CC(CC3C5)C4)[nH]c2n(CCC)c1=O
-9.84

// next record CCNC(=O)c1cc2c(N3CCOCC3C)ccnc2[nH]1 (stereo not given)
-3.94

// next record Clc1ccc(OC[C@H]2CCN2)cn1
-3.96

// next record N#Cc1c(O)nc(SCc2cccc(F)c2F)nc1C1CC1
-3.9

// next record CCC(C)N(C)C(=O)c1cc2ccccc2c(-c2ccccc2Cl)n1 (stereo not given)
7.72

// next record CC[N+](CC)(CC)CCOc1ccc(/C=C/c2ccccc2)cc1
1.13

// next record CC(C)(O)[C@H](F)CN1Cc2cc(NC(=O)c3cnn4cccnc34)c(N3CCOCC3)cc2C1=O
2.48

// next record Cc1cc(OCCC(C)(C)O)cc(C)c1-c1ccc(F)c2c1CC[C@H]2Oc1ccc2c(c1)OC[C@H]2CC(=O)O
1.96

// next record Cc1cnc(-c2cc(Cl)ccc2F)cc1-n1c(=O)n(CC(N)=O)c2cnccc21
3.5

----------
Record form. Attribute: inhibition. Fill in for each entry.
- TARGET OR TEST SYSTEM: G/T mismatch-specific thymine DNA glycosylase (Homo sapiens);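 note: human TDG cleavage of quenched duplex DNA oligonucleotides coupled to APE1, strand release read as fluorescence at 594 nm, inhibition of TDG activity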
- STATED CONDITIONS: Compound Concentration 10.0 uM, Hit No
- Description: Inhibition of TDG by quantifying inhibition of TDG-mediated cleavage and dissociation of quenched duplex DNA oligonucleotides, measured as fluorescence at 594 nm. To generate a functional strand incision and increase turn-over this assay is coupled to APE1.
Hi! Could you send only the number? It should be in %, unit omitted.

Using the record for O=C(O)CC/C=C\C[C@@H]1CO[C@H](c2ccccc2Cl)O[C@@H]1c1ccccc1O , report its inhibition.
13.8

// next record Cc1c(NC(=O)COc2ccc(Cl)cc2C(=O)c2cc(F)cc(C(F)(F)F)c2)ccc(C(=O)O)c1F
58.6

// next record CCOC(=O)Nc1ccc2c(c1)N(C(=O)CN(CC)CC)c1ccccc1CC2
97.9

// next record CC(C)(C)NC[C@H](O)COc1nsnc1N1CCOCC1
9.57

// next record CCn1c(CNC(=O)c2nc(Cl)cnc2N)[n+](CC)c2ccc(C(=O)N(C)CCN(C)C)cc21
96.8

// next record Cc1nc(-c2ccc(C(F)(F)F)cc2)sc1COc1ccc([C@H](CC(=O)O)c2ccon2)cc1
27

// next record O=C(Nc1ccccc1Br)N[C@@H]1CCN(c2ccc(C(F)(F)F)cn2)C1
27.5

// next record COc1ccc(CC(=O)NCc2ccccc2-c2ccccc2C(=O)NCc2ccc(F)cc2F)cc1
13.6

// next record C[C@H](NC(=O)Nc1cc2[nH]ncc2c(CO)n1)c1ccccn1
51.6

// next record COC(=O)c1cc2c(cn1)[nH]c1ccccc12
11

----------
- TARGET OR TEST SYSTEM: UniProt Q969S2
- Sequence (whole entry): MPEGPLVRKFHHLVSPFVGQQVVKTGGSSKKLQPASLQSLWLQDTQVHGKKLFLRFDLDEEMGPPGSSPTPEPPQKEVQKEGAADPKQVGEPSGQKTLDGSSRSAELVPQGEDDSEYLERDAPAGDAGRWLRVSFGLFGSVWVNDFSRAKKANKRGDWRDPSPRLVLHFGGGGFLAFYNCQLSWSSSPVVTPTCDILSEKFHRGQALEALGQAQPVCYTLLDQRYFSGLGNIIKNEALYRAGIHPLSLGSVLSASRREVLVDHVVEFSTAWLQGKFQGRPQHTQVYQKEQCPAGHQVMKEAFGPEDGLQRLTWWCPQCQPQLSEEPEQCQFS
- STATED CONDITIONS: Compound Concentration 10.0 uM, Hit No
- Description: Inhibition of NEIL2 by quantifying inhibition of NEIL2-mediated cleavage and dissociation of quenched duplex DNA oligonucleotides, measured as fluorescence at 594 nm.
Where a SMILES comes first, the peptide text is derived from it. [ ]: non-standard residue; d: D form. Arg(Me) = CNC(=N)NCCC[C@H](N)C(=O)O; d4Pal = N[C@H](Cc1ccncc1)C(=O)O; azaGly = NNC(=O)O
ASSAY METRIC: inhibition (%)
Hi! Could you send only the number? It should be in %, unit omitted.

Using the record for COc1ccccc1CN[C@H]1C2CCN(CC2)[C@H]1C(c1ccccc1)c1ccccc1 , report its inhibition.
-6.97

// next record CC1(C)C(=O)C(C)(C)c2cc(C(=O)Nc3ccc(C(=O)O)cc3)ccc21
-2.53

// next record Cc1nnn(-c2ccc(-c3ccc(C4(C(=O)O)CC4)cc3)cc2)c1NC(=O)O[C@H](C)c1ccccc1
4.01

// next record O=C(O)C1CN(Cc2ccc(OCc3ccc(Cl)c(Cl)c3)cc2)C1
-3.23

// next record Cc1c(C(=O)O)cc(-c2ccc(C3CCNCC3)cc2)c2ccc(-c3ccc(C(F)(F)F)cc3)cc12
-4.83

// next record O=[N+]([O-])c1ccc(CN2CCOCCOCCN(Cc3ccc([N+](=O)[O-])cc3)CCOCC2)cc1
-0.35

// next record COc1ccc2c(c1)O[C@H](c1ccc(OC)c(OC)c1)C[C@@H]2NC(=O)C1(c2ccc3c(c2)OC(F)(F)O3)CC1
-3.29

// next record C[S+]([O-])c1ccc(-c2nc(-c3ccc(F)cc3)c(-c3ccncc3)[nH]2)cc1 (stereo unspecified)
-0.483

// next record COc1ccc(C(=O)N2CCN(C(=O)/C=C/c3ccc(Br)cc3)CC2)cc1
-6.97

// next record CNC(=N)NCCC[C@H](NC(=O)[C@H](CC(C)C)NC(=O)NNC(=O)[C@H](Cc1ccccc1)NC(=O)[C@H](CO)NC(=O)[C@H](CC(N)=O)NC(=O)[C@@H](Cc1ccncc1)NC(=O)[C@H](N)Cc1ccc(O)cc1)C(=O)N[C@@H](Cc1ccccc1)C(N)=O (H-[dY][d4Pal]NSF[azaGly]L[Arg(Me)]F-NH2)
6.4

// next record NS(=O)(=O)c1cc(NC(=O)C2(c3ccccc3Cl)CC2)ccc1Oc1cccc(Cl)c1
3.34

// next record COc1ccc(CC[C@@H](OC(=O)[C@H]2CCCCN2C(=O)[C@@H](c2cc(OC)c(OC)c(OC)c2)C2CCCCC2)c2cccc(OCCN3CCOCC3)c2)cc1OC
4.61

// next record CN1CCN(Cc2ccc(-c3cccc(C(=O)Nc4ccccc4CC(=O)O)c3)cc2)CC1
-2.64

// next record CN[C@@H]1CCc2[nH]c3ccc(C(N)=O)cc3c2C1
-0.483

// next record O=C1CCc2cc(Nc3cc(OC4CCOCC4)c([N+](=O)[O-])cc3Cl)ccc2N1
4.87

// next record CCN(Cc1ccc(Cl)cc1)c1ncc(C(=O)NCCCN2CCCC2=O)c(NC2CCCC2)n1
-8.65
